assay: The drug is tested on Bacteroides fragilis strain: HMW610 for biotransformation. The drug concentrations were measured before and after a 12-h incubation by liquid-chromatography-coupled mass spectrometry (LC–MS); conditions: 2 µM
Assay Readout: Bacterial Biotransformation

>  <Compound>
CN1[C@@H]2CC[C@H]1C[C@@H](OC(=O)C(CO)c1ccccc1)C2 (stereo partly drawn) [ATROPINE]

>  <Assay Readout>
Bacterial Biotransformation

>  <Result>
Compound NOT metabolized

$$$$
>  <Compound>
COc1c(C)c2c(c(O)c1C/C=C(\C)CCC(=O)OCCN1CCOCC1)C(=O)OC2 [MYCOPHENOLATE MOFETIL]

>  <Assay Readout>
Bacterial Biotransformation

>  <Result>
Compound metabolized

$$$$
>  <Compound>
COC(=O)C1=C(C)NC(C)=C(C(=O)OC(C)C)C1c1cccc2nonc12 (stereo not drawn) [ISRADIPINE]

>  <Assay Readout>
Bacterial Biotransformation

>  <Result>
Compound NOT metabolized

$$$$
>  <Compound>
CN1CC(=O)N2[C@H](c3ccc4c(c3)OCO4)c3[nH]c4ccccc4c3C[C@@H]2C1=O

>  <Assay Readout>
Bacterial Biotransformation

>  <Result>
Compound metabolized

$$$$
>  <Compound>
COC(=O)Nc1nc2ccc(C(=O)c3ccccc3)cc2[nH]1 [MEBENDAZOLE]

>  <Assay Readout>
Bacterial Biotransformation

>  <Result>
Compound metabolized

$$$$
>  <Compound>
N#Cc1ccc2[nH]cc(CCCCN3CCN(c4ccc5oc(C(N)=O)cc5c4)CC3)c2c1 [VILAZODONE]

>  <Assay Readout>
Bacterial Biotransformation

>  <Result>
Compound metabolized

$$$$

The record that follows has no Bacterial Biotransformation shown yet.
Task: For CCc1nc(N)nc(N)c1-c1ccc(Cl)cc1 [PYRIMETHAMINE] , write its Bacterial Biotransformation.
Result: Compound NOT metabolized

###

conditions: bacteroides thetaiotaomicron, 12 h, 2 µM
Description: The drug is tested on Bacteroides thetaiotaomicron strain: VPI-5482 for biotransformation. The drug concentrations were measured before and after a 12-h incubation by liquid-chromatography-coupled mass spectrometry (LC–MS)
Non-standard residues stand in square brackets, D forms with d. Residues, ends and D or L forms follow the SMILES beside them. pGlu = O=C1CC[C@@H](C(=O)O)N1; Thz = O=C(O)[C@@H]1CSCN1
Assay Readout: Bacterial Biotransformation

>  <Compound>
CC[C@@H](CO)NC(=O)[C@@H]1C=C2c3cccc4c3c(cn4C)C[C@H]2N(C)C1.O=C(O)/C=C\C(=O)O [METHYSERGIDE MALEATE]

>  <Bacterial Biotransformation>
Compound metabolized

$$$$
>  <Compound>
O=C1CC[C@@H](C(=O)N2CSC[C@H]2C(=O)O)N1 [PIDOTIMOD] ([pGlu]-[Thz]-OH)

>  <Bacterial Biotransformation>
Compound metabolized

$$$$
>  <Compound>
Cc1ccc(/C(=C\CN2CCCC2)c2ccccn2)cc1

>  <Bacterial Biotransformation>
Compound NOT metabolized

$$$$
>  <Compound>
CCN(CC)CCOC(=O)C(Cc1cccc2ccccc12)CC1CCCO1.O=C(O)C(=O)O (configuration not stated) [NAFRONYL OXALATE]

>  <Bacterial Biotransformation>
Compound NOT metabolized

$$$$
>  <Compound>
CCN(CC)C(C)CN1c2ccccc2Sc2ccccc21 (configuration not stated)

>  <Bacterial Biotransformation>
Compound metabolized

$$$$
>  <Compound>
CN1CCC(OC(c2ccccc2)c2ccccc2)CC1

>  <Bacterial Biotransformation>
Compound NOT metabolized

$$$$

Task: Tell me Bacterial Biotransformation reported for COc1cc2nc(N(C)CCCNC(=O)C3CCCO3)nc(N)c2cc1OC (configuration not stated)
Result: Compound NOT metabolized

Task: Output measured Bacterial Biotransformation for this item: CC[C@H](C)C(=O)O[C@H]1C[C@@H](C)C=C2C=C[C@H](C)[C@H](CC[C@@H]3C[C@@H](O)CC(=O)O3)[C@H]21
Result: Compound NOT metabolized

Task: Input Nc1nc(N)nc(-c2cc(Cl)ccc2Cl)n1.O=C(O)/C=C\C(=O)O [IRSOGLADINE MALEATE] , output reported Bacterial Biotransformation.
Result: Compound NOT metabolized

Task: Consider the compound CN(C/C=C/C#CC(C)(C)C)Cc1cccc2ccccc12 and give its recorded Bacterial Biotransformation.
Result: Compound NOT metabolized

Task: Return Bacterial Biotransformation for the following compound: CN(C)CC(c1ccc(O)cc1)C1(O)CCCCC1.O=C(O)CCC(=O)O (configuration not stated) [DESVENLAFAXINE SUCCINATE]
Result: Compound NOT metabolized

Task: Please report the measured Bacterial Biotransformation for N=C(N)NC(=O)Cc1c(Cl)cccc1Cl
Result: Compound NOT metabolized

Task: Provide Bacterial Biotransformation value for the following compound: O=c1n(CCCN2CCN(c3cccc(Cl)c3)CC2)nc2ccccn12
Result: Compound NOT metabolized

Task: Give a short answer stating reported Bacterial Biotransformation for COc1ccc(CN2CCNCC2)c(OC)c1OC.Cl.Cl [TRIMETAZIDINE DIHYDROCHLORIDE] .
Result: Compound metabolized

Task: State its Bacterial Biotransformation: CC[C@H](C)C(=O)O[C@H]1CCC=C2C=C[C@H](C)[C@H](CC[C@@H]3C[C@@H](O)CC(=O)O3)[C@H]21
Result: Compound metabolized

Task: Let me know recorded Bacterial Biotransformation for CCOC(=O)C1=C(C)NC(C)=C(C(=O)OC)C1c1cccc([N+](=O)[O-])c1 (configuration not stated) , thanks.
Result: Compound metabolized

Task: Output measured Bacterial Biotransformation for this item: CC(C)c1nc(CN(C)C(=O)N[C@H](C(=O)N[C@@H](Cc2ccccc2)C[C@H](O)[C@H](Cc2ccccc2)NC(=O)OCc2cncs2)C(C)C)cs1
Result: Compound NOT metabolized
